Tested on: planktonic cells of Staphylococcus aureus
Test: Checkerboard combination assay, planktonic cells
Format: cell-based
Conditions: Staphylococcus aureus, S. aureus, mean, read-out: MIC alone, ATB
Description: The checkerboard assay, as previously described, was used for the determination of the fractional inhibitory concentration index (FICI). Briefly, 50 µL of MHB was distributed into each well of a 96-well microplate. […] Subsequently, the FICI was calculated according to the formula FICI = (MIC of the ATBs in combination/MIC of the ATBs alone) + (MIC of a natural substance in combination/MIC of the natural substance alone). […]
metric: MIC (µg/mL)

1. CC[C@H]1OC(=O)[C@H](C)[C@@H](O[C@H]2C[C@@](C)(OC)[C@@H](O)[C@H](C)O2)[C@H](C)[C@@H](O[C@@H]2O[C@H](C)C[C@H](N(C)C)[C@H]2O)[C@](C)(O)C[C@@H](C)C(=O)[C@H](C)[C@@H](O)[C@]1(C)O
108
2. NCC[C@H](O)C(=O)N[C@@H]1C[C@H](N)[C@@H](O[C@H]2O[C@H](CN)[C@@H](O)[C@H](O)[C@H]2O)[C@H](O)[C@H]1O[C@H]1O[C@H](CO)[C@@H](O)[C@H](N)[C@H]1O
4.33

(a) C=CC1=C(C(=O)O)N2C(=O)[C@@H](NC(=O)/C(=N\OCC(=O)O)c3csc(N)n3)[C@H]2SC1
(b) C[C@H]1c2cccc(O)c2C(=O)C2=C(O)[C@]3(O)C(=O)C(C(N)=O)=C(O)[C@@H](N(C)C)[C@@H]3[C@@H](O)[C@@H]21
(c) CC1(C)S[C@@H]2[C@H](NC(=O)[C@H](N)c3ccc(O)cc3)C(=O)N2[C@H]1C(=O)O
(d) Cc1nnc(SCC2=C(C(=O)O)N3C(=O)[C@@H](NC(=O)Cn4cnnn4)[C@H]3SC2)s1
QUERY: Please list these in order of increasing MIC. Thank you! Would you mind listing the labels in the order requested?
RESULT: b, d, c, a
(b: 6.16 µg/mL, d: 42.7 µg/mL, c: 86.7 µg/mL, a: 213 µg/mL)

* * *

Tested on: planktonic cells of Staphylococcus aureus
Test: Checkerboard combination assay, planktonic cells
Assay type: cell-based
Settings: Staphylococcus aureus, 24 h, S. aureus, mean, read-out: MIC alone, ATB
metric: MIC (µg/mL)

Some entries whose results are on file:
1) CC1(C)S[C@@H]2[C@H](NC(=O)[C@H](N)c3ccc(O)cc3)C(=O)N2[C@H]1C(=O)O
86.7
2) NCC[C@H](O)C(=O)N[C@@H]1C[C@H](N)[C@@H](O[C@H]2O[C@H](CN)[C@@H](O)[C@H](O)[C@H]2O)[C@H](O)[C@H]1O[C@H]1O[C@H](CO)[C@@H](O)[C@H](N)[C@H]1O
4.33

(I) C[C@H]1c2cccc(O)c2C(=O)C2=C(O)[C@]3(O)C(=O)C(C(N)=O)=C(O)[C@@H](N(C)C)[C@@H]3[C@@H](O)[C@@H]21
(II) CC[C@H]1OC(=O)[C@H](C)[C@@H](O[C@H]2C[C@@](C)(OC)[C@@H](O)[C@H](C)O2)[C@H](C)[C@@H](O[C@@H]2O[C@H](C)C[C@H](N(C)C)[C@H]2O)[C@](C)(O)C[C@@H](C)C(=O)[C@H](C)[C@@H](O)[C@]1(C)O
(III) Cc1nnc(SCC2=C(C(=O)O)N3C(=O)[C@@H](NC(=O)Cn4cnnn4)[C@H]3SC2)s1
(IV) C=CC1=C(C(=O)O)N2C(=O)[C@@H](NC(=O)/C(=N\OCC(=O)O)c3csc(N)n3)[C@H]2SC1
QUERY: Sort the compounds on MIC; start with the lowest figure. Hello, could you send the labels back in the order asked? Thank you.
RESULT: I, III, II, IV

* * *

# MBC per record follows
Test system: S. aureus
Experiment: MIC and MBC, broth microdilution
Assay type: cell-based, Staphylococcus aureus
Settings: Staphylococcus aureus; antibiotics; geometric mean, S. aureus (n = 3); read-out: MBC

1) NCC[C@H](O)C(=O)N[C@@H]1C[C@H](N)[C@@H](O[C@H]2O[C@H](CN)[C@@H](O)[C@H](O)[C@H]2O)[C@H](O)[C@H]1O[C@H]1O[C@H](CO)[C@@H](O)[C@H](N)[C@H]1O [Amikacin, amikacin]
> 128 µg/mL

QUERY: State the recorded MBC for this entry: C[C@H]1c2cccc(O)c2C(=O)C2=C(O)[C@]3(O)C(=O)C(C(N)=O)=C(O)[C@@H](N(C)C)[C@@H]3[C@@H](O)[C@@H]21 [Doxycycline, doxycycline]
RESULT: 32.7 µg/mL

* * *

System: Staphylococcus aureus biofilm
Assay: Checkerboard combination assay, biofilm inhibition
Assay type: cell-based
Settings: antibiotic alone; S. aureus biofilm inhibition
metric: MBIC alone, ATB (µg/mL)
Give the value, in units of µg/mL, as a plain number.

The cases that follow already have their MBIC alone, ATB on record.
1) NC[C@H]1O[C@H](O[C@H]2[C@H](O)[C@@H](O[C@H]3O[C@H](CO)[C@@H](O)[C@H](N)[C@H]3O)[C@H](N)C[C@@H]2N)[C@H](O)[C@@H](O)[C@@H]1O
1.83
2) CC1(C)S[C@@H]2[C@H](NC(=O)[C@H](N)c3ccc(O)cc3)C(=O)N2[C@H]1C(=O)O
1.5

QUERY: MBIC alone, ATB of `C[C@H]1c2cccc(O)c2C(=O)C2=C(O)[C@]3(O)C(=O)C(C(N)=O)=C(O)[C@@H](N(C)C)[C@@H]3[C@@H](O)[C@@H]21` on Staphylococcus aureus biofilm?
RESULT: 2.16

QUERY: Enter reported MBIC alone, ATB observed with Staphylococcus aureus biofilm for `NCC[C@H](O)C(=O)N[C@@H]1C[C@H](N)[C@@H](O[C@H]2O[C@H](CN)[C@@H](O)[C@H](O)[C@H]2O)[C@H](O)[C@H]1O[C@H]1O[C@H](CO)[C@@H](O)[C@H](N)[C@H]1O`
RESULT: 1.83

* * *

System: planktonic cells of Staphylococcus aureus
Assay: Checkerboard combination assay, planktonic cells
Assay type: cell-based
Settings: Staphylococcus aureus, S. aureus, mean, read-out: MIC alone, NPs
metric: MIC (µg/mL)

1) Cc1ccc(C(C)C)c(O)c1
299

(a) O=C(O)c1cc(O)c(O)c(O)c1 [Gallic acid, 3,4,5-trihydroxybenzoic acid]
(b) COc1cc(/C=C/C(=O)CC(=O)/C=C/c2ccc(O)c(OC)c2)ccc1O
QUERY: Input pair: a , b . Output: entry with lower MIC. To answer, give the label that identifies your chosen option.
RESULT: b

* * *

Tested on: UROtsa urinary epithelial cells
Test: Cytotoxicity, MTT assay
Assay type: cell-based
Settings: Epithelial cell, 48 h, read-out: IC50
Each entry below carries its recorded IC50.

// worked examples, IC50 included
1. NCC[C@H](O)C(=O)N[C@@H]1C[C@H](N)[C@@H](O[C@H]2O[C@H](CN)[C@@H](O)[C@H](O)[C@H]2O)[C@H](O)[C@H]1O[C@H]1O[C@H](CO)[C@@H](O)[C@H](N)[C@H]1O
> 1000 µg/mL
2. COc1cccc2c1C(=O)c1c(O)c3c(c(O)c1C2=O)C[C@@](O)(C(=O)CO)C[C@@H]3O[C@H]1C[C@H](N)[C@H](O)[C@H](C)O1
1.58 µg/mL
3. Cc1ccc(C(C)C)c(O)c1
> 1000 µg/mL
4. Cc1nnc(SCC2=C(C(=O)O)N3C(=O)[C@@H](NC(=O)Cn4cnnn4)[C@H]3SC2)s1
> 1000 µg/mL
5. CC1(C)S[C@@H]2[C@H](NC(=O)[C@H](N)c3ccc(O)cc3)C(=O)N2[C@H]1C(=O)O
> 1000 µg/mL
6. C=CC1=C(C(=O)O)N2C(=O)[C@@H](NC(=O)/C(=N\OCC(=O)O)c3csc(N)n3)[C@H]2SC1
> 1000 µg/mL

QUERY: Any idea what its IC50 is? The molecule is `COc1cc(/C=C/C(=O)CC(=O)/C=C/c2ccc(O)c(OC)c2)ccc1O`
RESULT: 51.9 µg/mL

* * *

Test system: S. saprophyticus biofilm
Test: Biofilm inhibition assay (MBIC, MTT)
Assay type: cell-based, Staphylococcus saprophyticus
Details: Staphylococcus saprophyticus, 24 h; geometric mean, S. saprophyticus (n = 3)
Here, each record is paired with measured minimal effective concentration data.
Respond numerically; units are µg/mL and should not be typed.

Worked cases, minimal effective concentration given:
1) O=c1c(O)c(-c2ccc(O)c(O)c2)oc2cc(O)cc(O)c12 [Quercetin, quercetin]
427
2) CC1(C)S[C@@H]2[C@H](NC(=O)[C@H](N)c3ccc(O)cc3)C(=O)N2[C@H]1C(=O)O [Amoxicillin, amoxicillin]
9

For the next question, use this compound.
QUERY: Which minimal effective concentration value is on record for C[C@H]1c2cccc(O)c2C(=O)C2=C(O)[C@]3(O)C(=O)C(C(N)=O)=C(O)[C@@H](N(C)C)[C@@H]3[C@@H](O)[C@@H]21 [Doxycycline, doxycycline] ?
RESULT: 0.5
